test: Non-competitive inhibition of Escherichia coli HPRT expressed in Escherichia coli SPhi606 using hypoxanthine as substrate by spectrophotometric analysis in presence of PRib-PP
EXPERIMENTAL_ENDPOINT: Ki (µM)

INSERT INTO assay_data (compound, experimental_endpoint, measure_unit, measured_result) VALUES
  ('Nc1nc2c(ncn2CC(O)COCP(=O)(O)O)c(=O)[nH]1 (stereo unspecified)', 'Ki', 'µM', 35);

----------
Catalogue of Ki values
assay: Inhibition of Escherichia coli XGPRT expressed in Escherichia coli SPhi606 using guanine as substrate by spectrophotometric analysis
EXPERIMENTAL_ENDPOINT: Ki (nM)

INSERT INTO measurements (compound, measure_unit, value_operator, measured_result) VALUES
  ('Nc1nc2c(ncn2CC(COCCP(=O)(O)O)OCCP(=O)(O)O)c(=O)[nH]1 (stereo not drawn)', 'nM', '=', 110),
  ('O=C(CP(=O)(O)O)N1CC[C@@H](n2cnc3c(=O)[nH]cnc32)C1', 'nM', '>', 200000),
  ('O=c1[nH]cnc2c1ncn2CCOCCP(=O)(O)O', 'nM', '=', 1500),
  ('Nc1nc2c(ncn2C(COCP(=O)(O)O)COCP(=O)(O)O)c(=O)[nH]1', 'nM', '=', 3000),
  ('Nc1nc2c(ncn2[C@@H]2CN(C(=O)CP(=O)(O)O)C[C@@H]2O)c(=O)[nH]1', 'nM', '>', 250000),
  ('Nc1nc2c(ncn2C(COCP(=O)(O)O)C(O)COCP(=O)(O)O)c(=O)[nH]1 (stereo not drawn)', 'nM', '=', 21000),
  ('Nc1nc2c(ncn2CCOCCP(=O)(O)O)c(=O)[nH]1', 'nM', '=', 700),
  ('Nc1nc2c(ncn2[C@H]2CCN(C(=O)CP(=O)(O)O)C2)c(=O)[nH]1', 'nM', '=', 230),
  ('Nc1nc2c(ncn2CC(COCP(=O)(O)O)COCP(=O)(O)O)c(=O)[nH]1', 'nM', '=', 10),
  ('O=c1[nH]cnc2c1ncn2C(COCP(=O)(O)O)COCP(=O)(O)O', 'nM', '=', 73000),
  ('Nc1nc2c(ncn2[C@H]2CN(C(=O)CP(=O)(O)O)C[C@H]2O)c(=O)[nH]1', 'nM', '=', 2200),
  ('Nc1nc2c(ncn2[C@@H]2CN(C(=O)CP(=O)(O)O)C[C@H]2OC(=O)CP(=O)(O)O)c(=O)[nH]1', 'nM', '=', 400),
  ('O=c1[nH]cnc2c1ncn2CC(O)COCP(=O)(O)O (stereo not drawn)', 'nM', '=', 16000);

----------
experiment: Binding affinity to Escherichia coli XGPRT
EXPERIMENTAL_ENDPOINT: Ki

INSERT INTO assay_data (input_smiles, measured_result) VALUES
  ('Nc1nc2c(ncn2[C@@H]2O[C@H](COP(=O)(O)O)[C@@H](O)[C@H]2O)c(=O)[nH]1', '4.5 µM');

The reported measurements were obtained from ChEMBL document CHEMBL2417550.
